- Measurement target: Phosphatidylinositol 3,4,5-trisphosphate 5-phosphatase 1 (Homo sapiens, UniProt Q92835)
- Method: Inhibition of SHIP-1 (unknown origin) by malachite green solution based […] analysis
Readout name: pIC50
Conceptually, pIC50 converts a concentration in mol/L into minus its log10.

C[C@@]12CCC[C@H]1[C@@H]1CC[C@H]3C[C@H](N)CC[C@]3(C)[C@H]1CC2 : 4.80

Moving on to the next molecule.
The value of pIC50 measured for the molecule C[C@@]12CCC[C@H]1[C@@H]1CC[C@H]3C[C@H](N)[C@H](N)C[C@]3(C)[C@H]1CC2 turned out to be 5.22

----------
- Measurement target: Phosphatidylinositol 3,4,5-trisphosphate 5-phosphatase 1 (Homo sapiens, UniProt Q92835)
- Method: Inhibition of human SHIP-1 (397 to 715 residues) catalytic domain expressed in Rosetta DE3 BL21 cells using 1-(1,2-dioctanoylphosphatidyl) inositol-3,4,5-trisphosphate as substrate by malachite green based spectramax microplate reader analysis
Readout name: pIC50
Notebook: values listed as pIC50 are -log10 of the concentration (mol/L).

N#CC1=C2N=C(N)c3ccccc3N2C2=C(C(=O)CCC2)C1c1ccc(-c2ccccc2)cc1 (configuration not stated) : 5.21
N#CC1=C2N=C(N)c3ccccc3N2C2=C(C(=O)CC(c3cccs3)C2)C1c1cccnc1 (configuration not stated) : 4.06
CC1(C)CC(=O)C2=C(C1)N1C(=C(C#N)C2c2ccc(-c3ccccc3)cc2)N=C(N)c2ccccc21 (configuration not stated) : 4.75
Cc1oc(-c2ccccc2Cl)nc1Cn1cccc1C1=NC(c2ccccc2)CO1 (configuration not stated) : 4.33
N#CC1=C2N=C(N)c3ccccc3N2C2=C(C(=O)CCC2)C1c1cc(Br)ccc1F (configuration not stated) : 4.63

get_value(item= CC(C)c1ccc(C2C(C#N)=C3N=C(N)c4ccccc4N3C3=C2C(=O)CCC3)cc1 (configuration not stated) , readout=pIC50) returns 4.88

Lab book: pIC50 of CC(C)c1ccc(C2C(C#N)=C3N=C(O)c4ccccc4N3C3=C2C(=O)CCC3)cc1 (configuration not stated) noted as 4.47

The molecule listed as N#CC1=C2N=C(N)c3ccccc3N2C2=C(C(=O)CCC2)C1c1cccnc1 (configuration not stated) has a reported pIC50 of 4.18

----------
- Method: Cytotoxicity against human HMC3 cells assessed as cell count incubated for 48 hrs by Hoechst-33342 staining based analysis
- Assay type: toxicity
Readout name: IC50 at 48 h (µM)
State just the number; it will be interpreted in µM.

Sample N#CC1=C2N=C(N)c3ccccc3N2C2=C(C(=O)CCC2)C1c1ccc(-c2ccccc2)cc1 (stereo unspecified) ; IC50 at 48 h observed: 19.9

----------
- Measurement target: UniProtKB O15357
- Sequence (O15357 whole entry): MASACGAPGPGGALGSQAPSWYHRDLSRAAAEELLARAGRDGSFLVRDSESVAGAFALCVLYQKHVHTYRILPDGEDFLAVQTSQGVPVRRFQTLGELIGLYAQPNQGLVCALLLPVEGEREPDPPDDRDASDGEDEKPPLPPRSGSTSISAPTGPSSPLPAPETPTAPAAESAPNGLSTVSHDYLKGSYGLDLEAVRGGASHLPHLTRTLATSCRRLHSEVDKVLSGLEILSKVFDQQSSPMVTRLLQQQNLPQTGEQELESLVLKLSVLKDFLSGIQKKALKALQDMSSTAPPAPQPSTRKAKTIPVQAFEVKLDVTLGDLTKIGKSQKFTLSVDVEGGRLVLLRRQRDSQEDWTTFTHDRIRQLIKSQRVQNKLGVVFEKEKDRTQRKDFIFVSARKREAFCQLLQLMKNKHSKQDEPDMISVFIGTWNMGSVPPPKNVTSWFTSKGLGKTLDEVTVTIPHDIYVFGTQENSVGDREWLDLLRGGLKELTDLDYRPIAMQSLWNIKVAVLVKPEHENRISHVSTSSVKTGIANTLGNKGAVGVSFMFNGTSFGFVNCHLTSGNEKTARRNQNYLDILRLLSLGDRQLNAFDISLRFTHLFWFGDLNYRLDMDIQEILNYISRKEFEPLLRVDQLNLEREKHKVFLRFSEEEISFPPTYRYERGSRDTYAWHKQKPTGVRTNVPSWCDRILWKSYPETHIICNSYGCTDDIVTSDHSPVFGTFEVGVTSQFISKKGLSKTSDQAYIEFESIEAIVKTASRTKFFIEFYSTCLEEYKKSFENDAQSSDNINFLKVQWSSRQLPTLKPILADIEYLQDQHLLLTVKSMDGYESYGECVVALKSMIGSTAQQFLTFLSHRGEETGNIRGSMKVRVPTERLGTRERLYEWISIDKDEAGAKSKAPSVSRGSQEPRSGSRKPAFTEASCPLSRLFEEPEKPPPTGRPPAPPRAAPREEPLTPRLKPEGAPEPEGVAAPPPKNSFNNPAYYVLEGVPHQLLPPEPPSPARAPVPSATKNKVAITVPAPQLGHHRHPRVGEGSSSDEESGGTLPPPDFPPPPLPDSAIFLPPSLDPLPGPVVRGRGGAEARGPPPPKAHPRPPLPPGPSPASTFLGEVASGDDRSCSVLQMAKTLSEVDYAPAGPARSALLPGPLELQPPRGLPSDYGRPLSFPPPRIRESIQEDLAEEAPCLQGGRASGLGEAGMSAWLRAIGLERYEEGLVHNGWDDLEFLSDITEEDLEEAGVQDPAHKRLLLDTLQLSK
- Method: Inhibition of human SHIP-2 (420 to 732 residues) catalytic domain expressed in Rosetta DE3 BL21 cells using -(1,2-dioctanoylphosphatidyflinosito1-3,4,5-trisphosphate as substrate by malachite green based spectramax microplate reader analysis
Readout name: IC50

Record N#CC1=C2N=C(N)c3ccccc3N2C2=C(C(=O)CC(c3cccs3)C2)C1c1cccnc1 (stereo unspecified) . Reported IC50: > 200 µM

----------
- Measurement target: UniProtKB Q92835
- Sequence (Q92835 whole entry): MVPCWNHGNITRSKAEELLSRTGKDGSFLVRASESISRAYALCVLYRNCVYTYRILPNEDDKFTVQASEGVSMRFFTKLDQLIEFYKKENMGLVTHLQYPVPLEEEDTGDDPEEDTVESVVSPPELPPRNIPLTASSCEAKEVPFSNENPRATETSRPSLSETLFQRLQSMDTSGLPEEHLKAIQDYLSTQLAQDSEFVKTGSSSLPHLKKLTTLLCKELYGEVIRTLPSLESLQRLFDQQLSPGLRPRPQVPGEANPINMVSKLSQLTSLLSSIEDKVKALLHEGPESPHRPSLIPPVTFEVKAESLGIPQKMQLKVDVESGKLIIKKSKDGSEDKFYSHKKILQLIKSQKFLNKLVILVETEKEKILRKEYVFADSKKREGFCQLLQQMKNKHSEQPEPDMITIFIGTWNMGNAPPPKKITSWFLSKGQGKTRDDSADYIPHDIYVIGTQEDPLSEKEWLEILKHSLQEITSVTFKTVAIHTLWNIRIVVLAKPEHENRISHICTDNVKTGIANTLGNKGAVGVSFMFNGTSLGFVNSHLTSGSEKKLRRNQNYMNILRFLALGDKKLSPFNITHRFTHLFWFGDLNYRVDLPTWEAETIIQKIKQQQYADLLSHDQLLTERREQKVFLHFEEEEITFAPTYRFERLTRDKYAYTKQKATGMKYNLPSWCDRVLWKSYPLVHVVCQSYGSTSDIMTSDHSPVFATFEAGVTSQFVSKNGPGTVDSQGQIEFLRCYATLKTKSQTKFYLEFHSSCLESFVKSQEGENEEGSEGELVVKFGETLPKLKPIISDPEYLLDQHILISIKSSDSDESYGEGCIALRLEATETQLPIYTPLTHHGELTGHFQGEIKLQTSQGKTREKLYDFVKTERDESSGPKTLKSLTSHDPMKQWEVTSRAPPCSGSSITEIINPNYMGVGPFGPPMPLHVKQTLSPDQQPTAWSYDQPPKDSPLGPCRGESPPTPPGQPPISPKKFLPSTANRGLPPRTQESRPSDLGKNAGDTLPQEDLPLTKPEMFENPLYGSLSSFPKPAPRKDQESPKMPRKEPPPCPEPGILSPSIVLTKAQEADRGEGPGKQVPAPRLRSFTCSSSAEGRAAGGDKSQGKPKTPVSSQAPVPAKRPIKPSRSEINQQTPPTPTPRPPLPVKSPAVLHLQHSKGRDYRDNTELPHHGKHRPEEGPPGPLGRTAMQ
- Method: Inhibition of SHIP-1 (unknown origin) using PtdIns(3,4,5)P3 as substrate by malachite green solution based […] analysis
Readout name: IC50 (µM)
Provide the reading as a plain figure in µM.

Recorded IC50 for CC(C)CCC[C@@H](C)[C@H]1CC[C@H]2[C@@H]3CC[C@H]4C[C@H](N)CC[C@]4(C)[C@H]3CC[C@]12C on UniProtKB Q92835 was 13.9

----------
- Tested on: HMC3
- Method: cells
- Applied conditions: Homo sapiens, HMC3, 48 h
Readout name: EC50
Enter the number, and then the unit.

Entry N#CC1=C2N=C(N)c3ccccc3N2C2=C(C(=O)CCC2)C1c1ccc(-c2ccccc2)cc1 (stereo unspecified) — recorded EC50 = 20 µM
